Test system: MDA-MB-231
Test: cell viability relative to vehicle unstimulated control (fraction); higher = more viable cells
Conditions: pre-treatment time: 18 h then 24 h IFNg/TNF
# key: entry, value: cell viability
Enter a number only.

Before answering, review these 4 worked examples.
C[C@@]12C[C@@H](c3ccoc3)OC(=O)[C@@H]1CC[C@]1(C)[C@H]2[C@@H]2C=C[C@@]1(O)C(=O)O2 [Columbin] (compound dose: 10 uM) | 0.991
COc1ccc2c3c1O[C@H]1CC(=O)C=C[C@@]31CCN(C)C2 [Galanthaminone] (compound dose: 10 uM) | 0.953
C=C1CC[C@H]2[C@@H](/C=C(\C)C(=O)[C@@]3(O)C[C@H](C)[C@H](O)[C@@H]3[C@@H]1O)C2(C)C [Lathyrol] (compound dose: 10 uM) | 1.08
CCCCCCCCCCCCCC(=O)O[C@@H]1[C@@H](C)[C@@]2(O)[C@@H](C=C(CO)C[C@]3(O)C(=O)C(C)=C[C@@H]23)[C@@H]2C(C)(C)[C@]12OC(C)=O [Phorbol 12-Myristate 13-Acetate] (compound dose: 10 uM) | 1.09

Next, consider the following compound.
For reference, reported cell viability for CC(C)=CCC[C@H](C(=O)O)[C@H]1CC[C@]2(C)C3=C(CC[C@@]12C)[C@@]1(C)CCC(=O)C(C)(C)[C@H]1CC3 [β-Elemonic acid] (compound dose: 10 uM) stands at 1.03

* * *

Test system: MDA-MB-231
Assay: cell viability relative to vehicle unstimulated control (fraction); higher = more viable cells
Details: pre-treatment time: 18 h then 24 h IFNg/TNF
# key: entry, value: cell viability
Enter a number only.

Before answering, review these 3 worked examples.
C=C1[C@H](OC(=O)c2ccccc2)C[C@H]2[C@@H](/C=C(\C)C(=O)[C@@]3(OC(C)=O)C[C@H](C)[C@H](OC(=O)c4ccccc4)[C@@H]3[C@H]1OC(C)=O)C2(C)C [Euphorbia Factor L2] (compound dose: 10 uM) | 0.847
CC1=C(O)C(=O)C=C2C1=CC=C1[C@@]2(C)CC[C@@]2(C)[C@@H]3C[C@](C)(C(=O)O)CC[C@]3(C)CC[C@]12C [Tripterin] (compound dose: 10 uM) | 0.0346
CN[C@H]1CCc2cc(OC)c(OC)c(OC)c2-c2ccc(OC)c(=O)cc21 [Demecolcine (colcemid)] (compound dose: 10 uM) | 0.847

For reference, reported cell viability for CC1=C[C@@H]2C(=O)[C@]3(C=C(C)[C@H](O)[C@@]3(O)[C@@H]1O)[C@H](C)C[C@@H]1[C@H]2C1(C)C [20-Deoxyingenol] (compound dose: 10 uM) stands at 0.975

For reference, reported cell viability for C/C=C(\C)C(=O)N[C@@H](c1ccccc1)[C@@H](O)C(=O)O[C@H]1C[C@@]2(O)[C@@H](OC(=O)c3ccccc3)[C@@H]3[C@]4(OC(C)=O)CO[C@@H]4C[C@H](O)[C@@]3(C)C(=O)[C@H](OC(C)=O)C(=C1C)C2(C)C [Cephalomannine] (compound dose: 10 uM) stands at 0.738

* * *

# key: entry, value: cell viability
Test system: MDA-MB-231;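 also: viability of the cells left after supernatant collection, read with Deep Blue dye added for 4 h, as absorbance at 570 nm minus 600 nm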
Assay: cell viability relative to vehicle unstimulated control (fraction); higher = more viable cells
Details: pre-treatment time: 18 h then 24 h IFNg/TNF

COc1cc(C(=O)O[C@H]2[C@@H]3C=CO[C@@H](O[C@@H]4O[C@H](CO)[C@@H](O)[C@H](O)[C@H]4O)[C@@H]3[C@@]3(CO)O[C@@H]23)ccc1O [Picroside II] (compound dose: 10 uM) | 0.923

Next, consider the following compound.
For reference, reported cell viability for CC(C)=CCC[C@@](C)(O)[C@H]1CC[C@]2(C)[C@@H]1[C@H](O)C[C@@H]1[C@@]3(C)CC[C@H](O)C(C)(C)[C@@H]3[C@@H](O[C@@H]3O[C@H](CO)[C@@H](O)[C@H](O)[C@H]3O)C[C@]12C [(20R)-Ginsenoside Rh1] (compound dose: 10 uM) stands at 0.961
